- System: PPARa:RXRa (NR concentration 270 nM, RXRa partner concentration 90 nM)
- METHOD_DESCRIPTION: PBM binding z-score (relative to random genomic background probes); higher = stronger binding; sequences stand for … in GC…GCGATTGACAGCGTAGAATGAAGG
Returns the class for an entry based on its PBM binding z-score. Class ranges: band A (below 2), band B (2 to below 5), band C (5 or more)

* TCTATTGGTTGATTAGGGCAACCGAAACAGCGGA | band A
* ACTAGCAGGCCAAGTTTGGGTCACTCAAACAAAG | band A
* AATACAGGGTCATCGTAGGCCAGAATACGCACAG | band C

Request: Form: Item = `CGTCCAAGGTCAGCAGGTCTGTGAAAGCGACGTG` ; Class = ?
Response: band B

Request: How about this sequence: `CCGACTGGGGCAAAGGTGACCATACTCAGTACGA`
Response: band B

Request: How about this sequence: `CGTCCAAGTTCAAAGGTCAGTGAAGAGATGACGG`
Response: band C

Request: How about this sequence: `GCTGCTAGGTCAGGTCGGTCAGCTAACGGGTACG`
Response: band A

Request: How about this sequence: `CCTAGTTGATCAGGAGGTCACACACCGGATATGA`
Response: band B

Request: How about this sequence: `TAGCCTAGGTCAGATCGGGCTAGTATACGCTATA`
Response: band A

Request: How about this sequence: `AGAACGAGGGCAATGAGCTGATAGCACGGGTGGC`
Response: band A

Request: How about this sequence: `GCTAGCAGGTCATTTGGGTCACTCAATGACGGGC`
Response: band B
